Each record here notes measured pIC50.
# Measured On: UniProtKB Q9Y6M4
# Procedure Text: CK1γ3 NanoBRET assay with tracer 23, intact cells
# Assay type: cell-based
# Run Conditions: read-out: NB IC50 CK1γ3; tracer 23; intact HEK293 cells; N = 1
pIC50: −log10 of the molar value.
Readout Type: pIC50

Nc1nccc(-c2c(-c3ccc(F)cc3)ncn2C2CCCCC2)n1 [PF-670462, reference compound]: < 4.52
Cc1ccc2nc(NC(=O)CSc3nc4c(c(=O)n3-c3ccc(F)cc3)SCC4)sc2c1 [IWP-3, reference compound]: < 4.52

----------
# Measured On: CK1γ3 (Homo sapiens)
# Sequence (Q9Y6M4 whole entry): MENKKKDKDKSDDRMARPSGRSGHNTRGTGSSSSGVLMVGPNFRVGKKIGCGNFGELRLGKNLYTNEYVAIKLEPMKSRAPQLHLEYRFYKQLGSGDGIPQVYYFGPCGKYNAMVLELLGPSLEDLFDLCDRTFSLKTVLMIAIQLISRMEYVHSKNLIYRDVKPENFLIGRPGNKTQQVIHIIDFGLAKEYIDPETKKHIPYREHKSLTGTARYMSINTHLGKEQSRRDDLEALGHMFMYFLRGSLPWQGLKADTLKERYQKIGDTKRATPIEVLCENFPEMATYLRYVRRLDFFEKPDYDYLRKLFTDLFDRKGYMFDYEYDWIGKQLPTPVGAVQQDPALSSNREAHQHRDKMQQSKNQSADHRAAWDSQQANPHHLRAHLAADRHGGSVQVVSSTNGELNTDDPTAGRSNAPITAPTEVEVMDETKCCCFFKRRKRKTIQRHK
# Procedure Text: CK1γ3 NanoBRET assay with tracer 23, intact cells
# Format: cell-based
# Run Conditions: NB IC50 CK1γ3, tracer 23; intact HEK293 cells; N = 1
Readout Type: IC50 (nM)

N#Cc1ccc2nc(Nc3ccc(N4CCOCC4)c(C(F)(F)F)c3)[nH]c2c1: 1350
N#Cc1ccc2[nH]c(Nc3ccc(N4CCCCC4)c(Cl)c3)nc2c1: 300
CN1CCN(c2ccc(Nc3nc4ccc(C#N)cc4[nH]3)cc2Cl)CC1: 180
N#Cc1ccc2nc(Nc3ccc(N4CCOCC4)c(Br)c3)[nH]c2c1: 110
N#Cc1ccc2nc(Nc3cc(F)c(N4CCOCC4)c(F)c3)[nH]c2c1: 3300
